# Target under test: Glutamate NMDA receptor; Grin1/Grin2c (Rattus norvegicus, UniProt P35439+Q00961)
# Sequence (Q00961 whole entry, other chains not shown): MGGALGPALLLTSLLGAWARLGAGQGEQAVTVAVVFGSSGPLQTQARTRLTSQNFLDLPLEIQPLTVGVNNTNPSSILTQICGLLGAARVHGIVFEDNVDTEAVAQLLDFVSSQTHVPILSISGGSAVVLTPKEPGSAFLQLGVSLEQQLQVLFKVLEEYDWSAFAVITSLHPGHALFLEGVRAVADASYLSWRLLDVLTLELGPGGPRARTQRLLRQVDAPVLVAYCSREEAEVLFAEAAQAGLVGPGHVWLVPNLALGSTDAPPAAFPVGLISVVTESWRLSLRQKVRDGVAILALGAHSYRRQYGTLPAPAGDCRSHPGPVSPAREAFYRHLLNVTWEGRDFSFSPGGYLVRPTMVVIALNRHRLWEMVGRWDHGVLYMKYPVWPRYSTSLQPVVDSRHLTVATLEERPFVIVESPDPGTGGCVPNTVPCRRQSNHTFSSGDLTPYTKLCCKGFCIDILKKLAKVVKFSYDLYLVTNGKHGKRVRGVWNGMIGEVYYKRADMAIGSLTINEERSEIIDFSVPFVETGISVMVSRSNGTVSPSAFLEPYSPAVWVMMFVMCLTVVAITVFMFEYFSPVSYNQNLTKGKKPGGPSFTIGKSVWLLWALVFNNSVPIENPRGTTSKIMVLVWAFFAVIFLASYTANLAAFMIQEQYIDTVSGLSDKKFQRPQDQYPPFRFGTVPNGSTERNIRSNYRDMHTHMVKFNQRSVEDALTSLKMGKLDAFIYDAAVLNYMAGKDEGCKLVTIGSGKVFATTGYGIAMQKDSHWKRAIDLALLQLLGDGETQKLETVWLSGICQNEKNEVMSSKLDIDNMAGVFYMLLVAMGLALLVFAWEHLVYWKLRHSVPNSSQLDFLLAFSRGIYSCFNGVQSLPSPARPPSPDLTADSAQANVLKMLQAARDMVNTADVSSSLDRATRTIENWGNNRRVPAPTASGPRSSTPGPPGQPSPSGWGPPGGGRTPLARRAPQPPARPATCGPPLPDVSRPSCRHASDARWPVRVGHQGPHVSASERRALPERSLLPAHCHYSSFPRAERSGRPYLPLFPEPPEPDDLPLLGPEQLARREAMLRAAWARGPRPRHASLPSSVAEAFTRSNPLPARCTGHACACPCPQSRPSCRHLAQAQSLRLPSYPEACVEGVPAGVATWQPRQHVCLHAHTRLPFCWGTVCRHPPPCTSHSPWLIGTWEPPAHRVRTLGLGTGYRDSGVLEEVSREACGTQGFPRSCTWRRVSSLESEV
# Assay notes: Potentiation of rat recombinant GluN1/GluN2C expressed in Xenopus laevis oocytes assessed as increase in glutamate/glycine-induced current response by two-electrode voltage clamp technique relative to control
Consider the following molecules; for each one, report its EC50.
Reply with just the number (in µM).

Req: Report EC50 for COC(=O)c1ccc(C2C(C(=O)c3cccc(F)c3)=C(O)C(=O)N2CCc2c[nH]c3ccccc23)cc1 (stereo unspecified)
Resp: 11

Req: Report EC50 for CCOC(=O)c1ccc(C2C(C(C)=O)=C(O)C(=O)N2CCc2c(C)[nH]c3ccccc23)cc1 (stereo unspecified)
Resp: 13

Req: Report EC50 for CCCC(=O)OC1=C(C(C)=O)C(c2ccc(C(=O)OC)cc2)N(CCc2c(C)[nH]c3ccccc23)C1=O (stereo unspecified)
Resp: 17

Req: Report EC50 for COC(=O)c1ccc(C2C(C(C)=O)=C(O)C(=O)N2CCc2c[nH]c3ccccc23)c(OC)c1 (stereo unspecified)
Resp: 46

Req: Report EC50 for CCOC(=O)c1ccc(C2C(C(=O)c3ccncc3)=C(O)C(=O)N2CCc2c[nH]c3ccccc23)cc1 (stereo unspecified)
Resp: 9.7

Req: Report EC50 for COC(=O)c1ccc(C2C(C(C)=O)=C(O)C(=O)N2CCc2c[nH]c3c(C)cccc23)cc1 (stereo unspecified)
Resp: 25

Req: Report EC50 for COC(=O)c1ccc(C2C(C(=O)c3cccnc3)=C(O)C(=O)N2CCc2c[nH]c3cc(Cl)ccc23)cc1 (stereo unspecified)
Resp: 8.5

Req: Report EC50 for COC(=O)c1ccc(C2C(C(C)=O)=C(O)C(=O)N2CCc2c[nH]c3ccccc23)c(Cl)c1 (stereo unspecified)
Resp: 36

Req: Report EC50 for COC(=O)c1ccc(C2C(C(=O)c3cccnc3)=C(O)C(=O)N2CCc2c[nH]c3c(Cl)cccc23)cc1 (stereo unspecified)
Resp: 7

Req: Report EC50 for COC(=O)c1ccc(C2C(C(=O)C(C)(C)C)=C(O)C(=O)N2CCc2c[nH]c3ccccc23)cc1 (stereo unspecified)
Resp: 52

Req: Report EC50 for CCOC(=O)c1ccc(C2C(C(C)=O)=C(O)C(=O)N2CCc2c[nH]c3ccccc23)c(O)c1 (stereo unspecified)
Resp: 40

Req: Report EC50 for CCOC(=O)c1ccc(C2C(C(C)=O)=C(O)C(=O)N2CCc2c[nH]c3ccccc23)cc1 (stereo unspecified)
Resp: 15

Req: Report EC50 for COC(=O)c1ccc(C2C(C(=O)c3cccc(C)c3)=C(O)C(=O)N2CCc2c[nH]c3ccccc23)cc1 (stereo unspecified)
Resp: 16

Req: Report EC50 for COC(=O)c1ccc(C2C(C(=O)C(C)C)=C(O)C(=O)N2CCc2c[nH]c3ccccc23)cc1 (stereo unspecified)
Resp: 61

Req: Report EC50 for COC(=O)c1ccc(C2C(C(C)=O)=C(OC(C)=O)C(=O)N2CCc2c[nH]c3ccccc23)cc1 (stereo unspecified)
Resp: 52

Req: Report EC50 for COC(=O)c1ccc(C2C(C(=O)c3cccnc3)=C(O)C(=O)N2CCc2c[nH]c3c(F)cccc23)cc1 (stereo unspecified)
Resp: 18

###

# Target under test: Glutamate NMDA receptor; Grin1/Grin2c (Rattus norvegicus, UniProt P35439+Q00961)
# Assay notes: Potentiation of rat recombinant GluN1/GluN2C expressed in Xenopus laevis oocytes assessed as increase in glutamate/glycine-induced current response by two-electrode voltage clamp technique relative to control
# Type: cell-based
pEC50: −log10 of the molar value.
Give Satisfied when the value for pEC50 is at least 5. Give Not satisfied when it is less.

Req: Hi team, for CCC(=O)C1=C(O)C(=O)N(CCc2c[nH]c3ccccc23)C1c1ccc(C(=O)OC)cc1 (configuration not stated) , is the recorded pEC50 at or above 5?
Resp: Not satisfied

Req: Hi team, for COC(=O)c1ccc(C2C(C(C)=O)=C(O)C(=O)N2CCc2c[nH]c3ccccc23)cc1O (configuration not stated) , is the recorded pEC50 at or above 5?
Resp: Not satisfied

Req: Hi team, for C=CC(=O)OC1=C(C(C)=O)C(c2ccc(C(=O)OC)cc2)N(CCc2c(C)[nH]c3ccccc23)C1=O (configuration not stated) , is the recorded pEC50 at or above 5?
Resp: Not satisfied

Req: Hi team, for COC(=O)c1ccc(C2C(C(C)=O)=C(OC)C(=O)N2CCc2c[nH]c3ccccc23)cc1 (configuration not stated) , is the recorded pEC50 at or above 5?
Resp: Not satisfied

Req: Hi team, for COC(=O)c1ccc(C2C(C(C)=O)=C(O)C(=O)N2CCc2c[nH]c3ccccc23)c(C)c1 (configuration not stated) , is the recorded pEC50 at or above 5?
Resp: Not satisfied

Req: Hi team, for COC(=O)c1ccc(C2C(C(=O)c3cccnc3)=C(O)C(=O)N2CCc2c[nH]c3cc(C)ccc23)cc1 (configuration not stated) , is the recorded pEC50 at or above 5?
Resp: Satisfied

Req: Hi team, for COC(=O)c1ccc(C2C(C(C)=O)=C(O)C(=O)N2CCc2c[nH]c3ccccc23)c(O)c1 (configuration not stated) , is the recorded pEC50 at or above 5?
Resp: Not satisfied

Req: Hi team, for COC(=O)c1ccc(C2C(C(C)=O)=C(O)C(=O)N2CCc2c[nH]c3ccccc23)c(F)c1 (configuration not stated) , is the recorded pEC50 at or above 5?
Resp: Not satisfied

Req: Hi team, for COC(=O)c1ccc(C2C(C(=O)c3cccc(O)c3)=C(O)C(=O)N2CCc2c[nH]c3ccccc23)cc1 (configuration not stated) , is the recorded pEC50 at or above 5?
Resp: Satisfied

Req: Hi team, for COC(=O)c1ccc(C2C(C(=O)c3ccccc3)=C(O)C(=O)N2CCc2c[nH]c3ccccc23)cc1 (configuration not stated) , is the recorded pEC50 at or above 5?
Resp: Not satisfied

###

Consider the following molecules; for each one, report its Activity.
# Target under test: Glutamate NMDA receptor; Grin1/Grin2a (Rattus norvegicus) (UniProt P35439+Q00959)
# Assay notes: Potentiation of rat recombinant GluN1/GluN2A expressed in Xenopus laevis oocytes assessed as increase in glutamate/glycine-induced current response at 30 uM by two-electrode voltage clamp technique relative to control
# Assay type: cell-based
Reply with just the number (in %).

Req: Report Activity for CN(C)C(=O)c1ccc(C2C(C(=O)c3cccnc3)=C(O)C(=O)N2CCc2c[nH]c3ccccc23)cc1 (stereo not drawn)
Resp: 118

Req: Report Activity for COC(=O)c1ccc(C2C(C(C)=O)=C(N)C(=O)N2CCc2c[nH]c3ccccc23)cc1 (stereo not drawn)
Resp: 93

Req: Report Activity for COC(=O)c1ccc(C2C(C(=O)c3ccncc3)=C(O)C(=O)N2CCn2cnc3ccccc32)cc1 (stereo not drawn)
Resp: 104

Req: Report Activity for COC(=O)c1ccccc1C1C(C(C)=O)=C(O)C(=O)N1CCc1c[nH]c2ccccc12 (stereo not drawn)
Resp: 88

Req: Report Activity for COC(=O)c1ccc(C2C(C(=O)c3cccnc3)=C(O)C(=O)N2CCc2c[nH]c3cc(F)ccc23)cc1 (stereo not drawn)
Resp: 94

Req: Report Activity for COC(=O)c1ccc(C2C(C(C)=O)=C(O)C(=O)N2CCc2c[nH]c3ccccc23)c(OC)c1 (stereo not drawn)
Resp: 102

Req: Report Activity for COC(=O)c1ccc(C2C(C(C)=O)=C(OC(C)=O)C(=O)N2CCc2c[nH]c3ccccc23)cc1 (stereo not drawn)
Resp: 95

Req: Report Activity for COC(=O)c1ccc(C2C(C(=O)c3cccc(OC)c3)=C(O)C(=O)N2CCc2c[nH]c3ccccc23)cc1 (stereo not drawn)
Resp: 92

Req: Report Activity for COC(=O)c1ccc(C2C(C(C)=O)=C(O)C(=O)N2CCc2ccccc2)cc1 (stereo not drawn)
Resp: 108

Req: Report Activity for N#Cc1ccc(C2C(C(=O)c3cccnc3)=C(O)C(=O)N2CCc2c[nH]c3ccccc23)cc1 (stereo not drawn)
Resp: 98

Req: Report Activity for CCOC(=O)c1ccc(C2C(C(C)=O)=C(O)C(=O)N2CCc2c[nH]c3ccccc23)cc1 (stereo not drawn)
Resp: 104

Req: Report Activity for COC(=O)c1ccc(C2C(C(=O)c3cccnc3)=C(O)C(=O)N2CCc2coc3ccccc23)cc1 (stereo not drawn)
Resp: 96

Req: Report Activity for CC(=O)C1=C(O)C(=O)N(CCc2c[nH]c3ccccc23)C1c1ccc(C(=O)OC(C)(C)C)cc1 (stereo not drawn)
Resp: 99

Req: Report Activity for CC(=O)C1=C(O)C(=O)N(CCc2c[nH]c3ccccc23)C1c1ccc([N+](=O)[O-])cc1 (stereo not drawn)
Resp: 106

Req: Report Activity for CCOC(=O)c1ccc(C2C(C(C)=O)=C(O)C(=O)N2CCc2c(C)[nH]c3ccccc23)cc1 (stereo not drawn)
Resp: 108

Req: Report Activity for COC(=O)c1ccc(C2C(C(=O)c3cccnc3)=C(O)C(=O)N2CCc2c[nH]c3cc(Cl)ccc23)cc1 (stereo not drawn)
Resp: 93

Req: Report Activity for COC(=O)c1ccc(C2C(C(C)=O)=C(O)C(=O)N2CCc2c[nH]c3ccccc23)cc1C (stereo not drawn)
Resp: 108

Req: Report Activity for CCOC(=O)c1ccc(C2C(C(=O)c3cccnc3)=C(O)C(=O)N2CCc2c[nH]c3ccccc23)cc1 (stereo not drawn)
Resp: 97
